Origin of values: ChEMBL document CHEMBL4689842

tested on: HEK-293T; assay: Multiplex assay against HEK293T; format: toxicity, cell-based; conditions: human, 48 h, 10 µM, compound concentration 10 uM, replicate 2
Field 'label' (enum: Satisfied / Not satisfied). Set to Satisfied when Population Healthy Nuclei (%) is strictly under 60%; else Not satisfied.

CCCn1c(=O)c2[nH]c(-c3cnn(Cc4cccc(C(F)(F)F)c4)c3)nc2n(CC)c1=O    Not satisfied
COc1cc(N2CCN(C)CC2)ccc1Nc1ncc2c(n1)N(C)c1ccccc1C(=O)N2C    Satisfied
O=C1NC(=O)C(c2cnc3ccccn23)=C1c1cn2c3c(cc(F)cc13)CN(C(=O)N1CCCCC1)CC2    Not satisfied
O=C(Cc1ccc(-c2ccc(OCCN3CCOCC3)cc2)cn1)NCc1ccccc1    Satisfied
Cc1cc(C)c(S(=O)(=O)N(Cc2ccc(-c3cccc(S(C)(=O)=O)c3)cc2)Cc2ccc(C(F)(F)F)o2)c(C)c1    Not satisfied
S=C(NCCCc1c[nH]cn1)NCCCN(Cc1ccc(Cl)c(Cl)c1)c1ccc(Br)cn1    Satisfied
CN1CCN(C(=O)C(C)(C)c2ccc(C(=O)Nc3cn4cc(-c5ccncc5)ccc4n3)cc2)CC1    Satisfied

Proceed to the following item.
Task: Please let me know if CN1C2CCC1CC(OC(c1ccc(F)cc1)c1ccc(F)cc1)C2.Cl (stereo not drawn) shows Population Healthy Nuclei (%) below 60%.
Output: Satisfied

###

tested on: HEK-293T; experiment: Multiplex assay against HEK293T; type: toxicity, cell-based; details: human, 48 h, 10 µM, compound concentration 10 uM, replicate 1
Could you please mark t for values of Population Apoptotic (%) below 70% and f for values at or above it?

Recorded results for 2 molecules are shown here.
C=C1/C(=C\C=C2/CCC[C@]3(C)[C@@H]([C@H](C)/C=C/[C@H](C)C(C)C)CC[C@@H]23)C[C@@H](O)C[C@@H]1O    t
CCOC(=O)c1c(C)[nH]c2ccc3c(c12)CN1CCc2cc(OC)ccc2C1O3 (stereo unspecified)    f

Task: Confirm or reject: Population Apoptotic (%) of `Cl.Oc1ccc2c3c1O[C@H]1c4[nH]c5c(c4C[C@@]4(O)[C@@H](C2)N(CC2CC2)CC[C@]314)C[C@@]1(O)[C@H]2Cc3ccc(O)c4c3[C@@]1(CCN2CC1CC1)[C@H]5O4` lies strictly below 70%
Output: t

Task: Please determine if `CNc1cc(Oc2cc(C(=O)Nc3cc(N4CCN(C)CC4)cc(C(F)(F)F)c3)ccc2C)ncn1` is below 70% in terms of Population Apoptotic (%).
Output: f

Task: Dear reviewer, please state whether `Cl.O=c1c2cccn2c2ccccc2n1CCCN1CCC(c2ccc(Cl)cc2)CC1` has Population Apoptotic (%) strictly beneath 70%.
Output: f

Task: Confirm or reject: Population Apoptotic (%) of `Cl.O=C(c1ccc(Nc2nccc(-c3cc4ccccc4s3)n2)cc1)N1CCC(N2CCCC2)CC1` lies strictly below 70%
Output: f

Task: Determine if `O=C(Cc1ccc(-c2ccc(OCCN3CCOCC3)cc2)cn1)NCc1ccccc1` shows Population Apoptotic (%) strictly lower than 70%.
Output: t

###

system: HEK-293T; experiment: Multiplex assay against HEK293T; format: toxicity, cell-based; conditions: human, 24 h, 1 µM, compound concentration 1 uM, replicate 2
This section presents molecules with their documented Population Healthy Nuclei (%) values.
Just the number please, in %, no unit attached.

// solved cases for Population Healthy Nuclei (%) follow
S=C(NCCCc1c[nH]cn1)NCCCN(Cc1ccc(Cl)c(Cl)c1)c1ccc(Br)cn1    40
CCn1c(=O)c(-c2ccc(-c3cncs3)cc2Cl)cc2cnc(Nc3ccc(N4CCN(C)CC4)cc3)nc21    65
Cc1cn(-c2cc(NC(=O)c3ccc(C)c(Nc4nccc(-c5cccnc5)n4)c3)cc(C(F)(F)F)c2)cn1 [NILOTINIB]    56

Next molecule, please.
Task: Indicate the recorded Population Healthy Nuclei (%) value for this molecule: CN(C)C(=O)C(CCN1CCC(O)(c2ccc(Cl)cc2)CC1)(c1ccccc1)c1ccccc1.Cl [LOPERAMIDE HYDROCHLORIDE]
Output: 48
